- target desc: monkey NPR1 (Macaca fascicularis)
- Sequence (A0A7N9DBT9 entry or part of it): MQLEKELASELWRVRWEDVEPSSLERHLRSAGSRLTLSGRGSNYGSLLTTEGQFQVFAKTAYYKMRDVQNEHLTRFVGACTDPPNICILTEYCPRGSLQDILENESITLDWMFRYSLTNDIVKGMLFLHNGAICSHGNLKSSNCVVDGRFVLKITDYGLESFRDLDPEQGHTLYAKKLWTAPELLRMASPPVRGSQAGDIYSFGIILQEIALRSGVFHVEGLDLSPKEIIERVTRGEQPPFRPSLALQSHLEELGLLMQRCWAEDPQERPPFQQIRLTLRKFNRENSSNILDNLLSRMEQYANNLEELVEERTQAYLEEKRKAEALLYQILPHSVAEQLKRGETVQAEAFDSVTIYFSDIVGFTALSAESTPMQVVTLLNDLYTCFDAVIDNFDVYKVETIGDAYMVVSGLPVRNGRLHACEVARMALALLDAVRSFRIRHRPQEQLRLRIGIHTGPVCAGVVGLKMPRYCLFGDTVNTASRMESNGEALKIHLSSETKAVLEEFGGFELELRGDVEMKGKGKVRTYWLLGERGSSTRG
- experiment notes: Cellular cGMP production assay, monkey NPR1 expressing CHO-K1 cells (CisBio HTRF)
- Assay type: cell-based
- experimental setup: maximum cGMP production as percentage of the maximum cGMP produced with ANP, monkey NPR1 CHO-K1 cells

| structure notation | Monkey NPR1 Amax (% of ANP) |
| --- | --- |
| CC[C@H]([C@H]1CC[C@H](C(=O)O)CC1)N(C)c1nc2c(c(N[C@@H](CN3CCC[C@H](C)C3)c3cnn(C)c3)n1)CN(c1ccc(F)cc1)CC2 | 103.438 % of ANP |
| CC[C@H]([C@H]1CC[C@H](C(=O)O)CC1)N(C)c1nc2c(c(N[C@@H](CN3C4CCCC3CC4)c3ccn(C)n3)n1)C[C@H](c1cccc(F)c1)CC2 | 97.086 % of ANP |
| CC[C@@H](Nc1nc2c(c(N[C@@H](CN3CCCC(C)(C)C3)c3cnn(C)c3)n1)C[C@H](c1ccccc1)CC2)[C@H]1CC[C@H](C(=O)O)CC1 | 94.323 % of ANP |
| CC[C@H]([C@H]1CC[C@H](C(=O)O)CC1)N(C)c1nc2c(c(N[C@@H](CN3CCC[C@H](CO)C3)c3cnn(C)c3)n1)C[C@H](c1ccccc1)CC2 | 91.105 % of ANP |
| CC[C@H](N(C)c1nc2c(c(N[C@@H](CN3CCC[C@H](CF)C3)c3cnn(C)c3)n1)C[C@](C)(c1ccccc1)CC2)C12CC(C(=O)O)(C1)C2 | 104.036 % of ANP |
